- measurement-description: Cytotoxicity against human HeLa cells expressing CD4, CCR5 after 3 days
- Type: cell-based
- particulars: HeLa cells expressing CD4 and CCR5
measured-metric: CC50 at 72 h (µM)
// units = µM; emit number, no label

smiles-code: C[C@@H]1CN(C(=O)C(=O)c2c[nH]c3c(-c4cccs4)ccnc23)CCN1C(=O)c1ccccc1
measured-metric: CC50 at 72 h
unit-spec: µM
result-number: 168

Continue with the molecule presented below.
IN: Note down CC50 at 72 h recorded for Cc1csc(-c2ccnc3c(C(=O)C(=O)N4CCN(C(=O)c5ccccc5)CC4)c[nH]c23)c1
OUT: 85

###

- Tested on: Rattus norvegicus
- measurement-description: AUC in rat at 5 mg/kg, po
- Assay type: ADME, organism-based, Plasma
- Design: dose 5 mg/kg, route oral
- particulars: in vivo
measured-metric: AUC

smiles-code: C[C@@H]1CN(C(=O)C(=O)c2c[nH]c3c(-c4nccs4)ccnc23)CCN1C(=O)c1ccccc1
target-or-system: Rattus norvegicus
result: 1.3 µM·h

smiles-code: C[C@@H]1CN(C(=O)C(=O)c2c[nH]c3c(-c4ncco4)ccnc23)CCN1C(=O)c1ccccc1
target-or-system: Rattus norvegicus
result: 5.6 µM·h

IN: Under Rattus norvegicus: report AUC of O=C(C(=O)N1CCN(C(=O)c2ccccc2)CC1)c1c[nH]c2c(-n3nccn3)ccnc12 .
OUT: 9.6 µM·h

IN: Look up and report measured AUC (Rattus norvegicus) for the following compound: C[C@@H]1CN(C(=O)C(=O)c2c[nH]c3c(-n4nccn4)ccnc23)CCN1C(=O)c1ccccc1
OUT: 3.3 µM·h

###

- measurement-description: Cytotoxicity against human HeLa cells expressing CD4, CCR5 after 3 days
- Assay type: cell-based
- particulars: HeLa cells expressing CD4 and CCR5
measured-metric: CC50 at 72 h

Would you please look over these solved cases?
smiles-code: C[C@@H]1CN(C(=O)c2ccccc2)CCN1C(=O)C(=O)c1c[nH]c2c(C(=O)O)ccnc12
CC50 at 72 h: > 300 µM
//
smiles-code: O=C(C(=O)N1CCN(C(=O)c2ccccc2)CC1)c1c[nH]c2c(Cl)ccnc12
CC50 at 72 h: > 300 µM
//
smiles-code: Cc1cnc(-c2ccnc3c(C(=O)C(=O)N4CCN(C(=O)c5ccccc5)[C@H](C)C4)c[nH]c23)s1
CC50 at 72 h: 28 µM
//
smiles-code: C[C@@H]1CN(C(=O)C(=O)c2c[nH]c3c(-c4ncco4)ccnc23)CCN1C(=O)c1ccccc1
CC50 at 72 h: 135 µM
//
smiles-code: COc1ccnc2[nH]cc(C(=O)C(=O)N3CCN(C(=O)c4ccccc4)C[C@H]3C)c12
CC50 at 72 h: > 300 µM

IN: Using known records, supply CC50 at 72 h for COc1ccnc2c(C(=O)C(=O)N3CCN(C(=O)c4ccccc4)CC3)c[nH]c12
OUT: > 300 µM

IN: Give reported CC50 at 72 h value for CON(C)C(=O)c1ccnc2c(C(=O)C(=O)N3CCN(C(=O)c4ccccc4)C[C@H]3C)c[nH]c12
OUT: > 300 µM

IN: Check the records and state CC50 at 72 h for Cc1ccnc2c(C(=O)C(=O)N3CCN(C(=O)c4ccccc4)CC3)c[nH]c12
OUT: > 300 µM

IN: Give a short answer stating reported CC50 at 72 h for O=C(C(=O)N1CCN(C(=O)c2ccccc2)CC1)c1c[nH]c2c(-c3cnccn3)ccnc12 .
OUT: > 300 µM

IN: Please look at this compound and report its CC50 at 72 h: O=C(C(=O)N1CCN(C(=O)c2ccccc2)CC1)c1c[nH]c2c(-n3cccn3)ccnc12
OUT: > 300 µM

IN: Answer with the recorded CC50 at 72 h for the compound listed here: O=C(C(=O)N1CCN(C(=O)c2ccccc2)CC1)c1c[nH]c2c(-n3ccnn3)ccnc12
OUT: > 300 µM
